target: M. thermoresistibile OtsA R213E (Mycolicibacterium thermoresistibile, UniProt G7CGT2, R213E); test: Effect of allosteric regulators on OtsA activity (R213E); format: biochemical, Mycobacterium thermoresistibile
measured-property: IC50
Output should be the measured figure followed by the unit it is expressed in.

Request the reported IC50 associated with O=C(O)C(CO)OP(=O)(O)O (stereo not shown)
12 mM

---

Biological target: M. thermoresistibile OtsA R384E (Mycolicibacterium thermoresistibile, UniProt G7CGT2, R384E)
Sequence (G7CGT2 1-486 R384E): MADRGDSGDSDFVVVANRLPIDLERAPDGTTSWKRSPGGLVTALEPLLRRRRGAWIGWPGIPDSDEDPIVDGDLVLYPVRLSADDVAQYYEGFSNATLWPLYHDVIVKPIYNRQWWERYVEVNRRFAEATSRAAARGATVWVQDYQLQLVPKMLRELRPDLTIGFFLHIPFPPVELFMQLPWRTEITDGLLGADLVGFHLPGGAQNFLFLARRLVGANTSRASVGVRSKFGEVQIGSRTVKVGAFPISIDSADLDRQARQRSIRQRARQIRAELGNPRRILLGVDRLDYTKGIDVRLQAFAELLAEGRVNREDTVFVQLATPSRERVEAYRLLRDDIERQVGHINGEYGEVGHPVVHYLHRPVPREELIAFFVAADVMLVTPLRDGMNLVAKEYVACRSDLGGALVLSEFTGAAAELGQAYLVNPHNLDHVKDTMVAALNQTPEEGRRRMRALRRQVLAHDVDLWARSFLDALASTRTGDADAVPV
Test: Effect of allosteric regulators on OtsA activity (R384E)
measured-property: IC50

Request the reported IC50 associated with O=C(O)C(CO)OP(=O)(O)O (stereo not shown)
< 100 mM
